- System: ATP;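 also: ATP exposure 15 min at 22 °C before imaging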
- ASSAY TEXT: switch fluorescence ratio, 500 uM ATP over buffer (Cy3 cluster intensity, sum of 5 cycles each) (fold (ratio)); higher = stronger signal-on switching upon ATP binding; sequences stand for … in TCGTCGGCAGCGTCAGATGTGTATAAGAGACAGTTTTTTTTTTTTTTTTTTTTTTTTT…TC
- RUN PARAMETERS: aptamer strand: ATP DNA aptamer (quencher-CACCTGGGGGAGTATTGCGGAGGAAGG + anchor), 100 nM annealed; ATP concentration: 500 uM
Rule: switch fluorescence ratio under 1 gives 0, otherwise 1.

Example results:
[[record]]
item_sequence = "TTTGATACTG"
system_tested = "ATP"
answer_label = 1

[[record]]
item_sequence = "GCGGTACTCT"
system_tested = "ATP"
answer_label = 1

[[record]]
item_sequence = "AAAAGGAAAG"
system_tested = "ATP"
answer_label = 0


Turning to the following sequence.
Hi, just wondering whether `TACTGTACTC` shows switch fluorescence ratio of 1 or higher.
1

* * *

- System: ATP;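 also: ATP exposure 15 min at 22 °C before imaging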
- ASSAY TEXT: switch fluorescence ratio, 500 uM ATP over buffer (Cy3 cluster intensity, sum of 5 cycles each) (fold (ratio)); higher = stronger signal-on switching upon ATP binding; sequences stand for … in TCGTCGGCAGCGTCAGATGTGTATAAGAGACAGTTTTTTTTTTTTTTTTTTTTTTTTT…TC
- RUN PARAMETERS: aptamer strand: ATP DNA aptamer (quencher-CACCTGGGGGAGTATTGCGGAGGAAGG + anchor), 100 nM annealed; ATP concentration: 500 uM
switch fluorescence ratio values by entry

[[record]]
item_sequence = "TAAGAGGGCA"
measured_property = "switch fluorescence ratio"
readout_value = 1.01

[[record]]
item_sequence = "TCGCGAGGGG"
measured_property = "switch fluorescence ratio"
readout_value = 0.997

[[record]]
item_sequence = "TTTCTCGTTC"
measured_property = "switch fluorescence ratio"
readout_value = 1.15

[[record]]
item_sequence = "ACCTGCATGG"
measured_property = "switch fluorescence ratio"
readout_value = 1.05

[[record]]
item_sequence = "TGGGACGACG"
measured_property = "switch fluorescence ratio"
readout_value = 0.991


Data request, read-out switch fluorescence ratio, for `TTTTCCTGAT`
1

For the sequence `CTTTAATTTT` , what switch fluorescence ratio is on record?
1.01

* * *

- Test system: ATP;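 also: ATP exposure 15 min at 22 °C before imaging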
- ASSAY TEXT: switch fluorescence ratio, 500 uM ATP over buffer (Cy3 cluster intensity, sum of 5 cycles each) (fold (ratio)); higher = stronger signal-on switching upon ATP binding; sequences stand for … in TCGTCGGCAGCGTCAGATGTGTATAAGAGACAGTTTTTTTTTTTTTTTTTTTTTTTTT…TC
- RUN PARAMETERS: aptamer strand: ATP DNA aptamer (quencher-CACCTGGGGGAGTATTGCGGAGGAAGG + anchor), 100 nM annealed; ATP concentration: 500 uM
MEASURED PROPERTY: switch fluorescence ratio
The response must contain the number and no unit.

Below are worked cases with known answers.
[[record]]
item_sequence = "TTTTTTGCCT"
system_tested = "ATP"
readout_value = 1.01

[[record]]
item_sequence = "AGGTCAGGCA"
system_tested = "ATP"
readout_value = 1

[[record]]
item_sequence = "TGAGAGATTT"
system_tested = "ATP"
readout_value = 0.984


Could you tell me which switch fluorescence ratio is on file for `TTCCGGTTCT` ?
1.03

switch fluorescence ratio lookup needed for `ATTACATTTT` , thanks.
1.03

Fill blank: measured switch fluorescence ratio of the sequence `GTAATGGAAT` is ____.
0.991

* * *

- Test system: ATP;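 also: ATP exposure 15 min at 22 °C before imaging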
- ASSAY TEXT: switch fluorescence ratio, 500 uM ATP over buffer (Cy3 cluster intensity, sum of 5 cycles each) (fold (ratio)); higher = stronger signal-on switching upon ATP binding; sequences stand for … in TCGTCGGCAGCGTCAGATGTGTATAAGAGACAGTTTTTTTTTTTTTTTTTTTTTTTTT…TC
- RUN PARAMETERS: aptamer strand: ATP DNA aptamer (quencher-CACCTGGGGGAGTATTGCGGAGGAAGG + anchor), 100 nM annealed; ATP concentration: 500 uM
Recorded switch fluorescence ratio, one value per entry.

Known switch fluorescence ratio results, listed for orientation:
[[record]]
item_sequence = "TTTGGGCAGT"
readout_value = 1

[[record]]
item_sequence = "GCTTGTACGG"
readout_value = 1.01

[[record]]
item_sequence = "TTGACAAGGG"
readout_value = 0.997

[[record]]
item_sequence = "GCGGTTTGAC"
readout_value = 1.03

[[record]]
item_sequence = "ATGTTCGAGA"
readout_value = 0.985

[[record]]
item_sequence = "GGGAGTAAAG"
readout_value = 0.989


Please give the measured switch fluorescence ratio for this sequence: `TTTTGGGGCA`
1.07

If you can, please state the reported switch fluorescence ratio value of `TTATAATTAG` .
0.994

Using the record for `AAGTCCGGGC` , report its switch fluorescence ratio.
1.02

Fill in the blank: the reported switch fluorescence ratio of `ACTTTCTAGC` is ____.
1.07

* * *

- Tested on: ATP;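 also: ATP exposure 15 min at 22 °C before imaging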
- ASSAY TEXT: switch fluorescence ratio, 500 uM ATP over buffer (Cy3 cluster intensity, sum of 5 cycles each) (fold (ratio)); higher = stronger signal-on switching upon ATP binding; sequences stand for … in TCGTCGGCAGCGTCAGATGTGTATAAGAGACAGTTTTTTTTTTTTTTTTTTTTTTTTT…TC
- RUN PARAMETERS: aptamer strand: ATP DNA aptamer (quencher-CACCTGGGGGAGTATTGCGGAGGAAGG + anchor), 100 nM annealed; ATP concentration: 500 uM
MEASURED PROPERTY: switch fluorescence ratio
Please reply with the value in numeric form only.

Known results for sequences:
[[record]]
item_sequence = "GGCTCTAGGG"
measured_property = "switch fluorescence ratio"
readout_value = 0.992

[[record]]
item_sequence = "GAGTCTCTTA"
measured_property = "switch fluorescence ratio"
readout_value = 1

[[record]]
item_sequence = "GGATCAAAAG"
measured_property = "switch fluorescence ratio"
readout_value = 1.01

[[record]]
item_sequence = "ATGGATCGAT"
measured_property = "switch fluorescence ratio"
readout_value = 0.967

[[record]]
item_sequence = "AAAAAAGTTA"
measured_property = "switch fluorescence ratio"
readout_value = 1

[[record]]
item_sequence = "ATTTGTAAGT"
measured_property = "switch fluorescence ratio"
readout_value = 0.959

[[record]]
item_sequence = "AGGCACGCTG"
measured_property = "switch fluorescence ratio"
readout_value = 1.02

[[record]]
item_sequence = "GAATGGGTCC"
measured_property = "switch fluorescence ratio"
readout_value = 1.01

[[record]]
item_sequence = "TGGAGATTAG"
measured_property = "switch fluorescence ratio"
readout_value = 1.01


// next entry
Request - read-out switch fluorescence ratio | tested on ATP | sequence `TTAGTTTCGG`;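 also: ATP exposure 15 min at 22 °C before imaging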
1.01

* * *

- Tested on: ATP;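 also: ATP exposure 15 min at 22 °C before imaging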
- ASSAY TEXT: switch fluorescence ratio, 500 uM ATP over buffer (Cy3 cluster intensity, sum of 5 cycles each) (fold (ratio)); higher = stronger signal-on switching upon ATP binding; sequences stand for … in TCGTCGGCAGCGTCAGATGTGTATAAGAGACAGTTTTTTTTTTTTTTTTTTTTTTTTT…TC
- RUN PARAMETERS: aptamer strand: ATP DNA aptamer (quencher-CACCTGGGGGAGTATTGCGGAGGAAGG + anchor), 100 nM annealed; ATP concentration: 500 uM
MEASURED PROPERTY: switch fluorescence ratio
Number, no unit, nothing else.

[[record]]
item_sequence = "GGGTTCAAGG"
readout_value = 0.995

[[record]]
item_sequence = "GAAATATAAT"
readout_value = 1.01

[[record]]
item_sequence = "GGGAATTACC"
readout_value = 0.986


Fill in the blank: the reported switch fluorescence ratio of `TAATCGGCTC` is ____.
1

// query switch fluorescence ratio value for entry `TCTATAAATA`
0.985

Entry `TGGCATCTTT` : reported switch fluorescence ratio = ?
1.02

Quick one: switch fluorescence ratio of `GTGCTTAATG` ?
0.975

Dear colleague, I am looking for the recorded switch fluorescence ratio of the following sequence: `GTTTTTGACT`
0.964

Request the reported switch fluorescence ratio associated with `GAGGTGTAGG`
1.01

// switch fluorescence ratio lookup, key: `GTCATAGTGT`
0.955

* * *

- Test system: ATP;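 also: ATP exposure 15 min at 22 °C before imaging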
- ASSAY TEXT: switch fluorescence ratio, 500 uM ATP over buffer (Cy3 cluster intensity, sum of 5 cycles each) (fold (ratio)); higher = stronger signal-on switching upon ATP binding; sequences stand for … in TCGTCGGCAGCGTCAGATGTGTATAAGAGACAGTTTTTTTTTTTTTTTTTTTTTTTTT…TC
- RUN PARAMETERS: aptamer strand: ATP DNA aptamer (quencher-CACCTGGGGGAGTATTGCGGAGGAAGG + anchor), 100 nM annealed; ATP concentration: 500 uM
Catalogue of switch fluorescence ratio values
// return just the number, without any unit appended

[[record]]
item_sequence = "TTTCATGAAT"
measured_property = "switch fluorescence ratio"
readout_value = 0.987

[[record]]
item_sequence = "CGGGTATAGG"
measured_property = "switch fluorescence ratio"
readout_value = 1.01

[[record]]
item_sequence = "CTCCTGTGTT"
measured_property = "switch fluorescence ratio"
readout_value = 1.06

[[record]]
item_sequence = "CGTCCTCATG"
measured_property = "switch fluorescence ratio"
readout_value = 1.3


Entry `CGGTCTATTG` : reported switch fluorescence ratio = ?
1

Which switch fluorescence ratio is reported for this sequence? `TCTGTTAAT`
1.11
